assay: Determination of brain exposure following oral dosing in mice; format: in vivo, male CD-1 mice; settings: male, CD-1, mouse, plasma, 10 mg/Kg PO, read-out: AUClast (Plasma)
Where a name gives a salt, the structure may show the parent alone.
Measured quantity: AUC(0-t) (ng·h/mL)
Field: numeric (ng·h/mL). Do not append units.

What value of measured AUC(0-t) is listed for CN(C)CCNC(=O)c1ccc(-c2ccc(-c3ccc(Cl)cc3)n2-c2ccccc2C(F)(F)F)cc1 [Example 33, Hydrochloride] ?
5030

###

test system: HCT116 cells
Counter-ions that a name gives are not always drawn.
The label is class 1 for GI50 below 700 nM and class 0 for GI50 equal to or exceeding 700 nM.

Criterion: GI50 strictly below 700 nM. Is it met by "CN1CCC(CNC(=O)c2cccc(-c3ccc(-c4ccc(Br)cc4)n3-c3ccccc3C(F)(F)F)c2)CC1" ?
class 1

Criterion: GI50 strictly below 700 nM. Is it met by CN(C)CCC(=O)Nc1ccc(-c2ccc(-c3ccc(Br)cc3)n2-c2ccccc2C(F)(F)F)cc1 [Example 46, Hydrochloride] ?
class 1

Criterion: GI50 strictly below 700 nM. Is it met by CN(C)CC(=O)NCc1cccc(-c2ccc(-c3ccc(Br)cc3)n2-c2ccccc2C(F)(F)F)c1 [Example 21, Hydrochloride] ?
class 0

Criterion: GI50 strictly below 700 nM. Is it met by CN1CC[C@@H](NC(=O)c2cccc(-c3ccc(-c4ccc(Br)cc4)n3-c3ccccc3C(F)(F)F)c2)C1 [Example 13, hydrochloride] ?
class 1

Criterion: GI50 strictly below 700 nM. Is it met by COc1ccc(C(=O)NCCN(C)C)cc1-c1ccc(-c2ccc(Br)cc2)n1-c1ccccc1 [Example 20, hydrochloride] ?
class 0

Criterion: GI50 strictly below 700 nM. Is it met by CN(C)CCCNC(=O)c1ccc(-c2ccc(-c3ccc(Cl)cc3)n2-c2cnccc2C(F)(F)F)cc1 [Example 51, hydrochloride] ?
class 1

Criterion: GI50 strictly below 700 nM. Is it met by CN(C)CCNC(=O)c1ccc(-c2ccc(-c3ccccc3)n2-c2ccccc2C(F)(F)F)cc1 [Example 26, hydrochloride] ?
class 1

Criterion: GI50 strictly below 700 nM. Is it met by CN(C)CCNC(=O)c1ccc(-c2ccc(-c3ccc(Cl)cc3)n2-c2ccccc2C(F)(F)F)cc1 [Example 33, Hydrochloride] ?
class 1

Criterion: GI50 strictly below 700 nM. Is it met by O=C(Cc1ccc(-c2ccc(-c3ccc(Cl)cc3)n2-c2ccccc2C(F)(F)F)cc1)NCCN1CCOCC1 [Example 100, hydrochloride] ?
class 1

Criterion: GI50 strictly below 700 nM. Is it met by CN(C)CCCNC(=O)c1ccc(-n2ncc(-c3ccc(Cl)cc3)c2-c2ccccc2C(F)(F)F)cc1 [Example 105, hydrochloride] ?
class 1

Criterion: GI50 strictly below 700 nM. Is it met by CN(C)CCNC(=O)c1ccc(-c2onc(-c3ccc(Cl)cc3)c2-c2ccccc2C(F)(F)F)cc1 [Example 92, Hydrochloride] ?
class 1

Criterion: GI50 strictly below 700 nM. Is it met by CN(C)CCNC(=O)c1cccc(-c2ccc(-c3ccc(Br)cc3)n2-c2ccccc2O)c1 [Example 25, hydrochloride] ?
class 0

Criterion: GI50 strictly below 700 nM. Is it met by CN(C)CCNC(=O)c1ccc(-c2ccc(-c3ccc(Cl)cc3)n2-c2cccc(C(F)(F)F)c2)cc1 [Example 77, hydrochloride] ?
class 0

Criterion: GI50 strictly below 700 nM. Is it met by "CN(C)CCCNC(=O)c1cccc(-c2ccc(-c3ccc(Br)cc3)n2-c2ccccc2C(F)(F)F)c1" ?
class 1

###

Where a name gives a salt, the structure may show the parent alone.
Measured quantity: GI50 (nM)
Field: numeric (nM). Do not append units.

Give GI50 (HCT116 cells) of the following molecule: "O=C(O)c1ccc(-c2ccc(-c3ccc(Br)cc3)n2-c2ccccc2C(F)(F)F)nc1"
8440

Give GI50 (HCT116 cells) of the following molecule: O=C(c1cccc(-c2ccc(-c3ccc(Br)cc3)n2-c2ccccc2C(F)(F)F)c1)N1CCC(Cc2cccnc2)CC1 [Example 102, hydrochloride]
380

Give GI50 (HCT116 cells) of the following molecule: CN(C)CCNC(=O)c1ccc(-c2ccc(-c3ccc(Br)cc3)n2-c2ccccc2C(F)(F)F)nc1 [Example 29, Hydrochloride]
60

###

Structures can show the parent of a compound that is named as a salt.
GI50 tested on HCT116 cells: recorded values
Field: numeric (nM). Do not append units.

What value of measured GI50 is listed for "CN(C)CCNC(=O)c1ccc(-c2ccc(-c3ccc(Br)cc3)n2-c2ccccc2C(F)(F)F)cc1Cl" ?
190

What value of measured GI50 is listed for CN1CC[C@H](NC(=O)c2ccc(-c3ccc(-c4ccc(Cl)cc4)n3-c3ccccc3C(F)(F)F)cc2)C1 [Example 71, hydrochloride] ?
20

What value of measured GI50 is listed for CN(C)CCNC(=O)c1ccc(-c2[nH]nc(-c3ccc(Cl)cc3)c2-c2ccccc2C(F)(F)F)cc1 [Example 93, Hydrochloride] ?
260

What value of measured GI50 is listed for CN(C)CCN(C)C(=O)c1cccc(-c2ccc(-c3ccc(Br)cc3)n2-c2ccccc2C(F)(F)F)c1 [Example 12, hydrochloride] ?
290

What value of measured GI50 is listed for CN(C)CCNC(=O)c1ccc(-c2ccc(-c3ccc(Cl)cc3)n2-c2ccccc2C(F)(F)F)nc1 [Example 61, hydrochloride] ?
60

What value of measured GI50 is listed for CN(C)CCNC(=O)c1cccc(-c2ccc(-c3ccc(F)cc3)n2-c2ccccc2C(F)(F)F)c1 [Example 5, hydrochloride] ?
560

What value of measured GI50 is listed for CN(C)CCNC(=O)c1ccc(-c2ccc(-c3ccc(F)cc3)n2-c2ccccc2C(F)(F)F)cc1 [Example 59, hydrochloride] ?
50

###

test system: glioblastoma cell line 909905; experiment: Glioblastoma cancer cell viability, cell line 909905; type: cell-based
Where a name gives a salt, the structure may show the parent alone.
Measured quantity: IC50 (nM)
Field: numeric (nM). Do not append units.

What value of measured IC50 is listed for CN(C)CCNC(=O)c1ccc(-c2ccc(-c3ccc(Cl)cc3)n2-c2ccccc2C(F)(F)F)cc1 [Example 33, Hydrochloride] ?
276

###

tested on: HCT116 cells
Counter-ions that a name gives are not always drawn.
The label is met for GI50 below 60 nM and not met for GI50 equal to or exceeding 60 nM.

Criterion: GI50 strictly below 60 nM. Is it met by CN(C)CCCNc1cccc(-c2ccc(-c3ccc(Br)cc3)n2-c2ccccc2C(F)(F)F)c1 [Example 16, Hydrochloride] ?
not met

Criterion: GI50 strictly below 60 nM. Is it met by CN(C)CCCOc1ccc(-c2ccc(-c3ccc(Br)cc3)n2-c2ccccc2C(F)(F)F)cc1 [Example 35, hydrochloride] ?
not met

Criterion: GI50 strictly below 60 nM. Is it met by NS(=O)(=O)c1ccc(-c2ccc(-c3ccc(Br)cc3)n2-c2ccccc2C(F)(F)F)cc1 [Example 65] ?
not met

Criterion: GI50 strictly below 60 nM. Is it met by COc1ccc(-c2ccc(-c3ccc(Br)cc3)n2-c2ccccc2C(F)(F)F)cc1C(=O)NCCN(C)C [Example 53, hydrochloride] ?
not met

Criterion: GI50 strictly below 60 nM. Is it met by O=C(O)Cc1ccc(-c2ccc(-c3ccc(Br)cc3)n2-c2ccccc2C(F)(F)F)cc1 [Example 47] ?
not met

Criterion: GI50 strictly below 60 nM. Is it met by CN(C)CCNC(=O)c1cccc(-c2ccc(-c3ccc(Br)cc3)n2-c2cnccc2C(F)(F)F)c1 [Example 6] ?
not met

Criterion: GI50 strictly below 60 nM. Is it met by CN(C)CCNC(=O)c1ccc(-c2ccc(-c3ccc(Br)cc3)n2-c2ccccc2C(F)(F)F)cc1 [Example 9, Hydrochloride] ?
met

Criterion: GI50 strictly below 60 nM. Is it met by O=C(NCCN1CCOCC1)c1ccc(-c2ccc(-c3ccc(Cl)cc3)n2-c2cnccc2C(F)(F)F)cc1 [Example 81, hydrochloride] ?
not met

Criterion: GI50 strictly below 60 nM. Is it met by CN(C)CCNC(=O)c1ccc(-c2ccc(-c3ccccc3)n2-c2ccccc2C(F)(F)F)c(Cl)c1 [Example 37, hydrochloride] ?
met

Criterion: GI50 strictly below 60 nM. Is it met by O=C(NCCN[C@H]1CCOC1)c1ccc(-c2ccc(-c3ccc(Cl)cc3)n2-c2cnccc2C(F)(F)F)cc1 [Example 96] ?
met

Criterion: GI50 strictly below 60 nM. Is it met by CN(C)CCNC(=O)c1ccc(-c2ccc(-c3ccc(Cl)cc3)n2-c2ccc(Cl)cc2C(F)(F)F)cc1 [Example 98, hydrochloride] ?
met

Criterion: GI50 strictly below 60 nM. Is it met by CN(C)CCCNC(=O)c1ccc(-c2ccc(-c3ccccc3)n2-c2cnccc2C(F)(F)F)c(Cl)c1 [Example 68, hydrochloride] ?
not met
